Answer each item with its documented IC50.
- Tested on: MDA-MB-436
- Assay info: Cell growth inhibition, MDA-MB-436 breast cancer cells (WST-8)
- Format: cell-based
- Cond: Homo sapiens, MDA-MB-436, 96 h; 4 days; read-out: IC50 (nM) MDA-MB-436 Cell Line (WST assay)
Write the value in nM as a bare number.

Prompt: Can you share its IC50? I mean this compound: CCc1nn(CC)c(CC)c1Nc1nc(C)nc2[nH]c3cc(-c4c(C)noc4C)c(OC)cc3c12
Completion: 76

Prompt: And then COc1cc2c(cc1-c1c(C)noc1C)[nH]c1nc(C)nc(Nc3cn(C)nc3C)c12 , what is it?
Completion: 97.6

Prompt: And then COc1cc2c(cc1-c1c(C)noc1C)[nH]c1nc(C)nc(Nc3cn(C)c4ncccc34)c12 , what is it?
Completion: 62

Prompt: And then COc1cc2c(cc1-c1c(C)noc1C)[nH]c1nc(C)nc(Nc3cc(C(F)(F)F)nn3C)c12 , what is it?
Completion: 52.7

====

Answer each item with its documented IC50.
- System name: recombinant BRD4 BD1 (Homo sapiens)
- Construct: for recombinant BRD4 BD1 and BRD4 BD2 proteins
- Assay info: Competitive fluorescence-polarization (FP) binding assay, BRD4 BD1; note: probe 1.5 nM
- Cond: competitive FP assay; protein 10 nM, probe […]; read-out: IC50 (nM) BRD4 BD1
Write the value in nM as a bare number.

Prompt: Can you share its IC50? I mean this compound: COc1cc2c(cc1-c1c(C)noc1C)[nH]c1nc(C)nc(Nc3c(C)cnn3C(C)C)c12
Completion: 12.1

Prompt: And then COc1cc2c(cc1-c1c(C)noc1C)[nH]c1nc(C)nc(Nc3[nH]ncc3C(C)C)c12 , what is it?
Completion: 26.5

Prompt: And then COc1cc2c(cc1-c1c(C)noc1C)[nH]c1nc(C)nc(Nc3cc(C)nn3C(C)C)c12 , what is it?
Completion: 6.1

Prompt: And then COc1cc2c(cc1-c1c(C)noc1C)[nH]c1nc(C)nc(Nc3c(C)nn(C)c3C)c12 , what is it?
Completion: 20.4

====

Answer each item with its documented IC50.
- System name: recombinant BRD4 BD2 (Homo sapiens, UniProt O60885)
- Construct: for recombinant BRD4 BD1 and BRD4 BD2 proteins
- Assay info: Competitive fluorescence-polarization (FP) binding assay, BRD4 BD2; note: probe 1.5 nM
- Cond: competitive FP assay; protein 6 nM, probe […]; read-out: IC50 (nM) BRD4 BD2
Write the value in nM as a bare number.

Prompt: # get_value(readout= IC50, system= recombinant BRD4 BD2 (Homo sapiens, UniProt O60885)) for COc1cc2c(cc1-c1c(C)noc1C)[nH]c1nc(C)nc(Nc3cccc4[nH]ccc34)c12 [Cpd. No. 220]
Completion: 9

Prompt: And then COc1cc(C)cc(Nc2nc(C)nc3[nH]c4cc(-c5c(C)noc5C)c(OC)cc4c23)c1 [Cpd. No. 218] , what is it?
Completion: 15

Prompt: And then COc1cc2c(cc1-c1c(C)noc1C)[nH]c1nc(C)nc(Nc3c(C)cnn3C3CC3)c12 [Cpd. No. 197] , what is it?
Completion: 69.9

Prompt: And then COc1cc2c(cc1-c1c(C)noc1C)[nH]c1nc(C)nc(Nc3cccc4c3CCN4)c12 [Cpd. No. 231] , what is it?
Completion: 44
